experimentalSystem: neuraminidase (NA), from Sigma-Aldrich
Construct: gene nanH
Format: biochemical
conditionParameters: read-out: NA enzyme-based inhibitory assays
readout: IC50 (µM)

1. COC(=O)C1=CO[C@@H](O[C@@H]2O[C@H](CO)[C@@H](O)[C@H](O)[C@H]2O)[C@H]2[C@@H]1[C@H](O)C[C@]2(C)O [compound 2, Shanzhiside methyl ester] = 10

* * *

experimentalSystem: neuraminidase (NA), from Sigma-Aldrich
Construct: gene nanH
Type: biochemical
conditionParameters: read-out: HPLC-FLD
readout: IC50

1) O=C(/C=C/c1ccc(O)c(O)c1)O[C@H]1[C@H](O)C[C@](O)(C(=O)O)C[C@H]1O = 2200 µM
2) COC(=O)C1=CO[C@@H](O[C@@H]2O[C@H](CO)[C@@H](O)[C@H](O)[C@H]2O)[C@@H]2C(CO)=CC[C@H]12 [compound 1, Geniposide] = 970 µM
3) O=C(/C=C/c1ccc(O)c(O)c1)O[C@@H]1C[C@](O)(C(=O)O)C[C@@H](O)[C@H]1O = 2560 µM
